Activity against ABUTH values by entry
System: ABUTH
testDescription: Pre-emergence herbicidal action against harmful plants
Format: in vivo, Abutilon theophrasti
assaySetup: dosage 20 g/ha, scored visually after 3 weeks, 100% = plants have died, 0% = like control plants
observedProperty: Activity against ABUTH (%)

[
  {
    "molecule": "Cc1nnc(NC(=O)c2ccc(C(F)(F)F)c(S(C)(=O)=O)c2C)o1 [drawing 20]",
    "observedProperty": "Activity against ABUTH",
    "unitText": "%",
    "measuredResult": 70
  },
  {
    "molecule": "Cc1nnc(NC(=O)c2ccc(C(F)(F)F)c(S(C)(=O)=O)c2C)o1 [drawing 28]",
    "observedProperty": "Activity against ABUTH",
    "unitText": "%",
    "measuredResult": 70
  },
  {
    "molecule": "Cc1nnc(NC(=O)c2ccc(C(F)(F)F)c(S(C)(=O)=O)c2C)o1 [drawing 23]",
    "observedProperty": "Activity against ABUTH",
    "unitText": "%",
    "measuredResult": 100
  },
  {
    "molecule": "Cc1nnc(NC(=O)c2ccc(C(F)(F)F)c([S+](C)[O-])c2Cl)o1 (stereo not drawn) [drawing 32]",
    "observedProperty": "Activity against ABUTH",
    "unitText": "%",
    "measuredResult": 60
  },
  {
    "molecule": "Cc1nnc(NC(=O)c2ccc(C(F)(F)F)c(S(C)(=O)=O)c2C)o1 [drawing 26]",
    "observedProperty": "Activity against ABUTH",
    "unitText": "%",
    "measuredResult": 70
  },
  {
    "molecule": "Cc1nnc(NC(=O)c2ccc(C(F)(F)F)c(S(C)(=O)=O)c2C)o1 [drawing 17]",
    "observedProperty": "Activity against ABUTH",
    "unitText": "%",
    "measuredResult": 100
  },
  {
    "molecule": "Cc1nnc(NC(=O)c2ccc(C(F)(F)F)c(S(C)(=O)=O)c2C)o1 [drawing 27]",
    "observedProperty": "Activity against ABUTH",
    "unitText": "%",
    "measuredResult": 100
  },
  {
    "molecule": "Cc1nnc(NC(=O)c2ccc(C(F)(F)F)c(S(C)(=O)=O)c2C)o1 [drawing 8]",
    "observedProperty": "Activity against ABUTH",
    "unitText": "%",
    "measuredResult": 70
  },
  {
    "molecule": "Cc1nnc(NC(=O)c2ccc(C(F)(F)F)c(S(C)(=O)=O)c2C)o1 [drawing 18]",
    "observedProperty": "Activity against ABUTH",
    "unitText": "%",
    "measuredResult": 70
  }
]

# credit: patent US10433553B2
